Tested on: CYP3A4/5
METHOD NOTES: CYP enzyme inhibition in pooled human liver microsomes, CYP3A4/5
RUN PARAMETERS: human, pooled human liver microsomes, probe midazolam (1′-hydroxylation), Enzyme activity (% inhibition), 30 Minutes Pre-incubation with NADPH, CYP3A4/5; 30 μM; probe Midazolam; PHLM
OBSERVED PROPERTY: inhibition at 30 µM (%)
The response must be a number in % with no trailing unit.

CYP3A4/5 / inhibition at 30 µM / COC[C@H](NC(=O)c1ccn(S(C)(=O)=O)c1)C(=O)Nc1nc(-c2cccc(N3C[C@@H](C)O[C@@H](C)C3)n2)cs1 [compound of formula (I)] : value?
40.2
